# tested.target: Aurora kinase B (Homo sapiens)
# Sequence (Q96GD4 whole entry): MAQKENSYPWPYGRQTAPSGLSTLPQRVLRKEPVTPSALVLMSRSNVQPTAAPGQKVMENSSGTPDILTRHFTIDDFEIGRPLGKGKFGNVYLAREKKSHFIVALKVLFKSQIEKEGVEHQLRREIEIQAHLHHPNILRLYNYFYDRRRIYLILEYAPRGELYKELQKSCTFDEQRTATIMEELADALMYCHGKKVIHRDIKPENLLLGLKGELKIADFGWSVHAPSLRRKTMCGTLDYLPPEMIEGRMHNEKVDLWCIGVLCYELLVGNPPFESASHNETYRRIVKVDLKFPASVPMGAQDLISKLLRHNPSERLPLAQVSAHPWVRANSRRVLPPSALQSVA
# assay.protocol: Inhibition of aurora B kinase

chemical.string | measure.unit | value.qualifier | IC50
CCC(=O)Nc1ccc(Sc2nc(Nc3cc(C)[nH]n3)cc(N3CCN(C)CC3)n2)cc1 | nM | = | 20
COc1cc2c(Nc3ncc(C(=O)Nc4ccccc4)s3)ncnc2cc1OCCCN1CCOCC1 | nM | = | 42
COc1cc2c(Nc3cc(CC(=O)Nc4cccc(F)c4F)[nH]n3)ncnc2cc1OCCCN(CCO)CC(C)C | nM | < | 1
O=C(Nc1c[nH]nc1-c1nc2cc(CN3CCOCC3)ccc2[nH]1)NC1CC1 | nM | = | 3
COc1cc2c(Nc3cnc(NC(=O)c4ccccc4)nc3)ncnc2cc1OCCCN1CCOCC1 | nM | = | 1
CCC(=O)Nc1ccc(Sc2nc(Nc3cc(C)n[nH]3)cc(N3CCN(CC)CC3)n2)cc1 | nM | = | 25
CCN(CCO)CCCOc1cc2ncnc(Nc3cc(CC(=O)Nc4cccc(F)c4)[nH]n3)c2cc1OC | nM | = | 1
CCN(CCO)CCCOc1ccc2c(Nc3cc(CC(=O)Nc4cccc(F)c4F)[nH]n3)ncnc2c1 | nM | = | 7.5
CCC(=O)Nc1ccc(Sc2nc(Nc3cc(C)n[nH]3)cc(N3CCN(C4CC4)CC3)n2)cc1 | nM | = | 9.5
CCC(=O)Nc1ccc(Sc2nc(Nc3cc(C)n[nH]3)cc(N3CCCCC3)n2)cc1 | nM | = | 8
CCCN(CCO)CCCOc1cc2ncnc(Nc3cc(CC(=O)Nc4cccc(F)c4)[nH]n3)c2cc1OC | nM | = | 2
CCC(=O)Nc1ccc(Sc2nc(Nc3cc(C)n[nH]3)cc(N3CCNCC3)n2)cc1 | nM | = | 18
COc1cc2c(Nc3nc(C(=O)Nc4ccccc4)cs3)ncnc2cc1OCCCN1CCOCC1 | nM | = | 530
CCC(=O)Nc1ccc(Sc2nc(Nc3cc(C)n[nH]3)cc(N3CCOCC3)n2)cc1 | nM | = | 14
COc1cc2c(Nc3ccc(C(=O)Nc4ccccc4)s3)ncnc2cc1OCCCN1CCOCC1 | nM | = | 57
COc1cc2c(Nc3ncc(CC(=O)Nc4ccccc4)s3)ncnc2cc1OCCCN1CCOCC1 | nM | < | 1
CCC(=O)Nc1ccc(Sc2nc(Nc3cc(C)n[nH]3)cc(N3CCN(C(C)(C)C)CC3)n2)cc1 | nM | = | 11
CCN(CCO)CCCOc1cc2ncnc(Nc3cc(CC(=O)Nc4cccc(F)c4F)[nH]n3)c2cc1OC | nM | < | 1

Origin of values: ChEMBL document CHEMBL1154007
